System: MCF-7 Breast Cancer Cell Line
Test: MTT cytotoxicity assay, transfected MCF-7 cells plus chemotherapeutic drug
Type: cell-based, human
Details: MCF-7 cells, mock-transfected control; Table 9; read-out: EC50, Control
Procedure: For a typical siRNA transfection, 1 nmole of the annealed siRNA duplex was mixed with 1.4 ml of Opti-MEM reagent (Invitrogen). In another tube, […] of Oligofectamine reagent (Invitrogen, Carlsbad, Calif.) was mixed with 600 ml of Opti-MEM. […] Cell survival was determined using the MTT cytotoxicity assay (see, e.g., Tokuyama et al. (2005) Anticancer Res. 25(1A): 17-22). […] Cell survival was determined as described in Example 3 above.

{"columns": ["compound", "measuredOn", "EC50 (µM)"],
 "data": [
  ["N.N.[Cl][Pt][Cl] [Cisplatinum]", "MCF-7 Breast Cancer Cell Line", 118]
]}
